system: SK-MEL-2; assay: NCI tumour cell line growth inhibition, 48 h
Calls of active or inactive are those of the source. Rule as the data show it: active = GI50 up to about 1.1 µM and inactive = higher.
Hi! Could you answer with just one of these? label 1 for active, label 0 for inactive

Consider the worked cases shown below.
- COMPOUND: "[O-][n+]1ccccc1Sc1nc(Sc2cccc[n+]2[O-])nc(Sc2cccc[n+]2[O-])n1"
  TEST_SYSTEM: "SK-MEL-2"
  DISCRETE_LABEL: "label 0"
- COMPOUND: "C1=C(c2ccccc2)Nc2nnnn2C1c1ccccc1 (stereo not given)"
  TEST_SYSTEM: "SK-MEL-2"
  DISCRETE_LABEL: "label 0"
- COMPOUND: "CC(C)(C)c1cc(C2COC(c3cc(C(C)(C)C)c(O)c(C(C)(C)C)c3)CO2)cc(C(C)(C)C)c1O (stereo not given)"
  TEST_SYSTEM: "SK-MEL-2"
  DISCRETE_LABEL: "label 0"
- COMPOUND: "CC[C@H]1C=CCC[C@@]2(C[C@@H]3CC[C@H]4[C@H](C(=O)OCCCCCCCCCCCCCCCC(=O)N(CCCN)C[C@@H](O)CCN)[C@]5(CCC[C@@H](C)O5)NC(=[N+]34)N2)O1"
  TEST_SYSTEM: "SK-MEL-2"
  DISCRETE_LABEL: "label 1"

Read the next record carefully.
Test call for this compound, please: COc1ccc2c(c1)[n+]([O-])c(/C(C)=N/NC(=O)c1ccccc1O)c(C)[n+]2[O-]
label 0

Origin of the recorded values: ChEMBL document CHEMBL1201862
